# METHOD NOTES: BET inhibitor-based combinations targeting novel dependencies in MECOM-rearranged (r) AML: AML-194 cell line (AID 2202237; also: nearly all actives have a fitted effect of over 40% in size)
# COND: AML-194 (MECOM-r AML) viability, CellTiter-Glo, 48 h; series mostly up to 46 µM
Inconclusive results are not listed. Active and inactive are the calls of the source. Calls follow the shape of the dose curve; as a rule, active = well fitted inhibition curve with a large enough effect; inconclusive = small, poorly fitted or top-dose-only effect; inactive = flat fitted curve, though single readings scatter.
Classes used: active, inactive

• CCC(C)SSc1ncc[nH]1 (stereo not given) = active
• CC[C@]1(O)CC2CN(CCc3c([nH]c4ccccc34)[C@@](C(=O)OC)(c3cc4c(cc3OC)N(C)[C@H]3[C@@](O)(C(=O)OC)[C@H](OC(C)=O)[C@]5(CC)C=CCN6CC[C@]43[C@@H]65)C2)C1 (stereo not given in full) = active
• CN(CC(=O)N(Cc1ccc(C2CCCCC2)cc1)c1ccc(C(=O)O)c(O)c1)S(=O)(=O)c1c(F)c(F)c(F)c(F)c1F = inactive
• O=C(Nc1c(Cl)cncc1Cl)c1ccc(OC(F)F)c(OCC2CC2)c1 = inactive
• CCOC(=O)c1ccnc(CNCC(=O)N(CC)CCN(C)C)c1 = inactive
• O=C(Cc1ccc(-c2ccc(OCCN3CCOCC3)cc2)cn1)NCc1ccccc1 = active
• CC(C)n1cnc2c(NCCc3ccc(O)cc3)nc(-c3csc4ccccc34)nc21 = active
• Cc1ccc(NC(=O)c2ccc(CN3CCNCC3)cc2)cc1Nc1nccc(-c2cccnc2)n1 = active
• COc1c2occc2cc2ccc(=O)oc12 = inactive
• C[C@@H](Oc1cc(-c2cnn(C3CCNCC3)c2)cnc1N)c1c(Cl)ccc(F)c1Cl = active
• Cc1cc(Cl)ccc1OCCCC(=O)NO = active
• CCc1cccc(CC)c1NC(=O)N1Cc2[nH]nc(NC(=O)c3ccc(N4CCN(C)CC4)cc3)c2C1 = active
• COc1cc2ncnc(-n3nc(-c4ccccn4)nc3N)c2cc1OC = active
• O=C(O)C1CCCN(CCC=C(c2ccccc2)c2ccccc2)C1 (stereo not given) = inactive
• CN1CCN(c2ccc(OC(F)(F)F)c(Nc3ncc4c(n3)-c3c(c(C(N)=O)nn3CCO)CC4)c2)CC1 = active
• CC[C@H](NC(C)C)[C@H](O)c1ccc(O)c2[nH]c(=O)ccc12 = inactive
• CN(Cc1cc(Br)cc(Br)c1N)C1CCCCC1 = inactive
• Clc1ccc(Cn2c(CN3CCCC3)nc3ccccc32)cc1 = active
• CC(C)C[C@H](NC(=O)CNC(=O)c1cc(Cl)ccc1Cl)B1OC(=O)CC(CC(=O)O)(C(=O)O)O1 (stereo not given in full) = active
• COc1cc2c(cc1OC)[C@@H]1C(=O)c3ccc4c(c3O[C@@H]1CO2)C=CC(C)(C)O4 = active

###

# SYSTEM UNDER TEST: Retinaldehyde dehydrogenase 3 (Homo sapiens) (UniProt P47895)
# METHOD NOTES: qHTS for Inhibitors of the Aldehyde Dehydrogenase Family (ALDH1A3) Confirmatory screens (AID 2061311); also: nearly all actives have a fitted effect of over 60% in size
# COND: ALDH inhibition qHTS; series mostly up to 46 µM
Results filed as inconclusive are left out. Activity calls are given as the source filed them. The call rests on the fitted dose curve; in most records, active means well fitted inhibition curve with a large enough effect; inconclusive means small, poorly fitted or top-dose-only effect; inactive means no such curve, though single readings can be large or run the other way.
Classes used: YES (active), NO (inactive)

* N#Cc1ccc(C(=O)N2CCC3(CC2)N=C(N)c2c(F)ccc(F)c2N3)cn1 | NO
* Cc1nc2ccc(Nc3nc(Nc4c(C)cc(C=CC#N)cc4C)nc4nc[nH]c34)cc2s1 | NO
* CN(C)c1cc2c(Nc3ccc4c(cnn4Cc4ccccc4)c3)ncnc2cn1 | YES
* N#CNC(=O)c1ccc(-n2cccc2/C=C2\NC(=O)N(CC(=O)Nc3cccc(F)c3)C2=O)cc1 | NO
* CN(C)c1ccc(NC(=O)NS(=O)(=O)c2ccc(Cl)cc2)cc1 | YES
* COc1ccc(C2=Nn3c(nnc3-c3cccc(OC)c3)SC2)cc1 | NO
* NC(=O)C1CCN(c2ncc(-c3ccc4c(c3)OCCO4)s2)CC1 | YES
* O=C1Cc2cc(S(=O)(=O)N3CCN(c4ccc(C(F)(F)F)cc4)CC3)ccc2N1 | NO
* Clc1cccc(-c2ccc(C3Nc4cccc5cccc(c45)N3)o2)c1 | YES
* Cn1ncc2c(C(=O)NCC(F)F)cc(-c3cccc(C(F)(F)F)c3)nc21 | YES
* Cc1cccc(C)c1-n1c(SCC(=O)NCCCCCC(=O)O)nnc1-c1cccc([S+](=O)([O-])N2CCCC2)c1 | NO
* COc1cc(O)c(C(=O)O)c(CCc2ccccc2)c1 | YES
* Cc1ccc(-c2no[n+]([O-])c2C#N)cc1 | NO
* O=C(Nc1cccc(C(F)(F)F)c1)c1cccc(C(=O)Nc2cccc(C(F)(F)F)c2)c1 | NO
* Cc1ccc(C(=O)Nc2noc3ccccc23)cc1 | YES
* O=C(Nc1cncc(NC(=O)c2cccs2)c1)c1cccs1 | YES
* Cc1cc(C)n2ncc(C(=O)Nc3ccc4c(c3)OCO4)c2n1 | NO
* CC(=O)Nc1sc2c(c1-c1cnn(C(C)=O)c1)CCNC2 | NO
* O=S(=O)(Nc1cc(O)cc2cccnc12)c1ccc(Br)s1 | NO
* Cc1ccc(S(=O)(=O)c2ccc([N+](=O)[O-])cn2)cc1 | YES
* CCN1C(=O)C=CC1=O | NO
* O=C(Cc1ccc(Cl)c(Cl)c1)Nc1ccc(S(=O)(=O)Nc2cccc(C(=O)O)c2)cc1 | NO

###

# METHOD NOTES: BET inhibitor-based combinations targeting novel dependencies in MECOM-rearranged (r) AML: OCI-AML3 cell line (AID 2202232); also: nearly all actives have a fitted effect of over 35% in size; also: potency is read from the fitted curve at half-maximal effect
# COND: CellTiter-Glo luminescence, 48 h; OCI-AML3 viability; series mostly up to 46 µM
Records with an inconclusive call do not appear. The source made the active and inactive calls. Calls follow the shape of the dose curve; as a rule, active = well fitted inhibition curve with a large enough effect; inconclusive = small, poorly fitted or top-dose-only effect; inactive = no such curve, though single readings can be large or run the other way.
MEASUREMENT NAME: Potency

• N[C@@H](Cc1ccc(O)c(O)c1)C(=O)O = inactive
• CN1CC[C@@H](NC(=O)Nc2ccc(C#N)cc2)C[C@@H]1c1nc2ccccc2[nH]1 = inactive
• O=C1C(Cl)=C(NCCN2CCOCC2)C(=O)c2ncccc21 = 3.72 µM (active)
• O=C(O)CCn1c2c(c3ccccc31)C[C@H](NS(=O)(=O)c1ccc(F)cc1)CC2 = inactive
• COC(=O)Nc1cc(Nc2cc(NC3CC3)c3ncc(C#N)n3n2)c(Cl)c(N2CCN(C)CC2)c1 = 3.32 µM (active)
• Cc1c(-c2ccnn2C)cc(C(=O)NCc2ccc(S(C)(=O)=O)cn2)c(=O)n1-c1cccc(C(F)(F)F)c1 = inactive
• C[C@@H]1C(=O)O[C@H]2CC34[C@H]5C[C@@H](C(C)(C)C)C36[C@H](OC(=O)[C@@H]6O)O[C@@]4(C(=O)O5)[C@]21O (some centres undefined) = inactive
• CCC(C)(Oc1ccc(C2(c3ccc(OC(C)(CC)C(=O)O)cc3)CCCCC2)cc1)C(=O)O (centres undefined) = inactive
• Cc1ccccc1C(=O)Nc1ccc(C(=O)N2CCCC(O)c3cc(Cl)ccc32)c(C)c1 (centres undefined) = inactive

###

# METHOD NOTES: BET inhibitor-based combinations targeting novel dependencies in MECOM-rearranged (r) AML: HNT-34 cell line (AID 2202234); also: nearly all actives have a fitted effect of over 35% in size; also: potency is read from the fitted curve at half-maximal effect
# COND: HNT-34 AML viability, CellTiter-Glo luminescence, 48 h; series mostly up to 46 µM
Inconclusive results are not listed. Calls of active or inactive are those of the source. Calls follow the shape of the dose curve; as a rule, active = well fitted inhibition curve with a large enough effect; inconclusive = small, poorly fitted or top-dose-only effect; inactive = no such curve, though single readings can be large or run the other way.
MEASUREMENT NAME: Potency

- O=C(O)c1ccc2c(c1)nc(Nc1cccc(Cl)c1)c1ccncc12: 2630 nM (active)
- COc1ccc([C@@H]2CNC(=O)C2)cc1OC1CCCC1: inactive
- Cn1cnc2c(F)c(Nc3ccc(Br)cc3F)c(C(=O)NOCCO)cc21: 23.5 nM (active)
- O=C(O)c1ccccc1C(=O)Nc1ccc(-c2ccccc2)cc1: inactive
- O=[N+]([O-])c1cn2c(n1)OC[C@@H](OCc1ccc(OC(F)(F)F)cc1)C2: inactive
- NC1(Cc2ccc(Cl)cc2)CCN(c2ncnc3[nH]ccc23)CC1: 7420 nM (active)
- N=c1ccn2c(n1)O[C@H]1[C@@H](O)[C@@H](CO)O[C@H]12: 235 nM (active)
- OC(Cn1cncn1)(Cn1cncn1)c1ccc(F)cc1F: inactive
- CCn1nc(C2CCN(C(=O)CCO)CC2)nc1-c1cnc(N)c(-c2nnc(C(C)(C)C)o2)n1: 16600 nM (active)
- COc1cc2ncnc(Nc3cccc(Br)c3)c2cc1OC: 9340 nM (active)
- Cc1c(Cn2c(C)nc3c(C(=O)O)cc(N4CCOCC4)cc32)cccc1C(F)(F)F: 5900 nM (active)
- CC(C)NCC(O)COc1ccc(CCOCC2CC2)cc1 (stereo unspecified): inactive
- Cc1cc(Nc2ncnc3ccc(-c4ccc(CNCCS(C)(=O)=O)o4)cc23)ccc1Oc1ccn2ncnc2c1: inactive
- CCCCc1nc2cc(/C=C/C(=O)NO)ccc2n1CCN(CC)CC: 833 nM (active)
- N#C[C@@H]1C[C@@H]2C[C@@H]2N1C(=O)[C@@H](N)C12CC3CC(CC(O)(C3)C1)C2: inactive
- CC(C)(C#N)c1cc(Cn2cncn2)cc(C(C)(C)C#N)c1: inactive
- CN1C(=O)c2sccc2N(C)c2nc(Nc3ccc(S(N)(=O)=O)cc3)ncc21: 934 nM (active)
- c1cc(CN2CCCNCCNCCCNCC2)ccc1CN1CCCNCCNCCCNCC1: inactive
- NCC1CCN(c2nccc(-c3ccc4ccccc4c3)n2)CC1: 8330 nM (active)
- COc1cc2c(cc1OC)C1CC(=O)C(CC(C)C)CN1CC2 (stereo unspecified): inactive
- Cc1cc(Nc2ncc3c(n2)N(C)C(=O)N(c2cc(NC(=O)c4cccc(C(F)(F)F)c4)ccc2C)C3)n(C)n1: 26.3 nM (active)

Numbers sourced from PubChem BioAssay (NCATS).
